# System: AURKC
# Measurement Conditions: Compound Concentration (nM):1000;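 also: KINOMEscan scanMAX binding as percent activity remaining versus control; lower means stronger binding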
Checkbox rule: Percent Control lower than 50% = true (1); Percent Control not lower than 50% = false (0).

Use these answered entries as a reference point.
[[record]]
compound = "CN(C)CCNC(=O)Nc1ccc(N(C)c2ccnc(Nc3ccc(CS(C)(=O)=O)cc3)n2)cc1.Cl [GW830900A]"
class_assignment = "true (1)"

[[record]]
compound = "COc1ccc2c(-c3ccnc(Nc4cccc(OC(F)(F)F)c4)n3)cnn2n1 [GW810372X]"
class_assignment = "false (0)"

[[record]]
compound = "NS(=O)(=O)c1ccc(N/N=C2\\C(=O)Nc3ccc(-c4cnco4)cc32)cc1"
class_assignment = "false (0)"

[[record]]
compound = "COc1cc(/C=N/Nc2ncnc3[nH]ncc23)ccc1O [GW578748X]"
class_assignment = "false (0)"


Query: Say whether its Percent Control is strictly beneath 50%. Entry: Cl.O=C(Nc1ccc(Oc2ccc3[nH]c(NC(=O)c4ccccc4)nc3c2)cc1)Nc1cc(C(F)(F)F)ccc1F [GW709042A]
Reply: true (1)

Query: Below 50% on Percent Control? Entry COc1cc2ncn(-c3cc(O[C@H](C)c4ccccc4Cl)c(C(N)=O)s3)c2cc1OC [GSK237701A]
Reply: false (0)

Query: # strict comparison: is reported Percent Control < 50%? input = NS(=O)(=O)c1ccc(N/N=C2\C(=O)Nc3ccc(Cl)cc32)cc1 [GW280670X]
Reply: false (0)

Query: Criterion: Percent Control strictly below 50%. Is it met by COc1cccc(-c2c[nH]c3c(N/N=C/c4ccncc4)ncnc23)c1 [GW814408X] ?
Reply: true (1)

====

# System: ACVR1
# Measurement Conditions: Compound Concentration (nM):1000
Measured Percent Control of individual entries
Dear colleague, please return just the value in %, with no unit written.

Take a look at these entries with their results.
[[record]]
molecule = "COc1cc(/C=N/Nc2ncnc3[nH]ncc23)ccc1O [GW578748X]"
target_system = "ACVR1"
numeric_readout = 83

[[record]]
molecule = "NS(=O)(=O)c1ccc(Nc2ncc(-c3ccccc3)o2)cc1 [GW572399X]"
target_system = "ACVR1"
numeric_readout = 100


Query: Provide Percent Control, system ACVR1, entry CN(C)c1cc2c(Nc3ccc4c(cnn4Cc4ccccc4)c3)ncnc2cn1 [GW282974X]
Reply: 87

Query: Output reported Percent Control of the molecule "NS(=O)(=O)c1ccc(N/N=C2\C(=O)Nc3ccc(-c4cnco4)cc32)cc1" on ACVR1.
Reply: 66

Query: Under ACVR1, report Percent Control for Cc1cc(O)cc(C)c1/C=C/c1cncc(C(N)=O)c1 [GW435821X]
Reply: 7.3

Query: Lab note: record Percent Control of COC(=O)Nc1nc2ccc(Oc3ccc(NC(=O)Nc4cc(C(F)(F)F)ccc4F)cc3)cc2s1.Cl [GW693917A] tested on ACVR1.
Reply: 89

Query: Fill: Percent Control (ACVR1) for this molecule CN1CCN(C(=O)c2ccc(NC(=O)Nc3ccc(N(C)c4ccnc(Nc5ccc(CS(C)(=O)=O)cc5)n4)cc3)cc2)CC1.Cl [GW830263A]
Reply: 28

Query: Param request: Percent Control | system ACVR1 | item Cl.O=C(Nc1ccc(Oc2ccc3[nH]c(NC(=O)c4ccccc4)nc3c2)cc1)Nc1cc(C(F)(F)F)ccc1F [GW709042A]
Reply: 100

====

# Test system: PIK3CA(I800L)
# Measurement Conditions: Compound Concentration (nM):1000
Reported Endpoint: Percent Control (%)
Number only, in %; omit the unit.

[[record]]
compound = "Cl.O=C(Nc1ccc(Oc2ccc3[nH]c(NC(=O)c4ccco4)nc3c2)cc1)Nc1cc(C(F)(F)F)ccc1F [GW683134A]"
reported_endpoint = "Percent Control"
numeric_readout = 100

[[record]]
compound = "COc1cccc(-n2ncc3c(N/N=C/c4ccncc4)ncnc32)c1 [GW784752X]"
reported_endpoint = "Percent Control"
numeric_readout = 96

[[record]]
compound = "NS(=O)(=O)c1ccc(N/N=C2\\C(=O)Nc3ccc(C(=O)NCCc4c[nH]cn4)cc32)cc1 [GW300660X]"
reported_endpoint = "Percent Control"
numeric_readout = 98


Consider now this further compound.
Query: Give Percent Control for the following compound: CC1=C(C(=O)Nc2ccc3[nH]ncc3c2)C(c2ccc3ccccc3c2)CC(=O)N1 (stereo not shown) [GSK270822A]
Reply: 93

====

# Test system: NEK1
# Measurement Conditions: Compound Concentration (nM):1000
Reported Percent Control is given for each of the following molecules.
Reply numerically in %, unit not repeated.

[[record]]
molecule = "COc1cccc(-c2c[nH]c3c(N/N=C/c4ccncc4)ncnc23)c1 [GW814408X]"
reported_endpoint = "Percent Control"
numeric_readout = 95

[[record]]
molecule = "Cc1cc(O)cc(C)c1/C=C/c1cncc(C(N)=O)c1 [GW435821X]"
reported_endpoint = "Percent Control"
numeric_readout = 100


Query: Answer with reported Percent Control of O=C1Nc2ccc(C(=O)c3ccco3)cc2C1=Cc1cc(Cl)c(O)c(Cl)c1 [GW406108X]
Reply: 78

Query: Report measured Percent Control; entry is COc1cc2ncnc(Nc3ccc4c(cnn4Cc4ccccc4)c3)c2cc1OC.Cl [GW282449A]
Reply: 95

Query: Write down Percent Control measured for item CCn1c(-c2nonc2N)nc2c(C#CC(C)(C)O)nc(OCCNC)cc21.Cl [GSK949675]
Reply: 100

====

# Tested on: CDK4
# Measurement Conditions: Compound Concentration (nM):1000
Reported Endpoint: Percent Control (%)
Number only, in %; omit the unit.

Solved cases (4 shown):
[[record]]
compound = "Cc1cc(O)cc(C)c1/C=C/c1cncc(C(N)=O)c1 [GW435821X]"
numeric_readout = 100

[[record]]
compound = "COc1cc2ncn(-c3cc(O[C@H](C)c4ccccc4Cl)c(C(N)=O)s3)c2cc1OC [GSK237701A]"
numeric_readout = 86

[[record]]
compound = "COc1ccc2[nH]c3c4[nH]c5ccc(OC)cc5c4c4c(c3c2c1)C(=O)NC4=O [GW296115X]"
numeric_readout = 100

[[record]]
compound = "COc1cccc(-c2c[nH]c3c(N/N=C/c4ccncc4)ncnc23)c1 [GW814408X]"
numeric_readout = 100


Continue with the next compound.
Query: Kindly indicate its recorded Percent Control. Item: O=C(Nc1n[nH]c2nc(-c3ccc(O)cc3)c(Br)cc12)C1CC1 [SB-725317]
Reply: 100

====

# Test system: STK36
# Measurement Conditions: Compound Concentration (nM):1000
Parameter Percent Control: see the listing below.
I only need the number, in %, no unit after it.

See these solved cases before continuing.
[[record]]
compound = "O=C1Nc2ccc(C(=O)c3ccco3)cc2C1=Cc1cc(Cl)c(O)c(Cl)c1 [GW406108X]"
target_system = "STK36"
numeric_readout = 87

[[record]]
compound = "NS(=O)(=O)c1ccc(N/N=C2\\C(=O)Nc3ccc(Cl)cc32)cc1 [GW280670X]"
target_system = "STK36"
numeric_readout = 100

[[record]]
compound = "Nc1ncnc2occ(-c3ccc(NC(=O)Nc4cc(C(F)(F)F)ccc4F)cc3)c12 [GW770249X]"
target_system = "STK36"
numeric_readout = 100

[[record]]
compound = "CC1=C(C(=O)Nc2ccc3[nH]ncc3c2)C(c2ccc(Cl)c(Cl)c2)CC(=O)N1 (stereo not drawn) [GSK299115A]"
target_system = "STK36"
numeric_readout = 100

[[record]]
compound = "C/C(Nc1ccc(S(N)(=O)=O)cc1)=C1/C(=O)Nc2ccccc21 [GW335962X]"
target_system = "STK36"
numeric_readout = 98


Please turn your attention to the following entry.
Query: Give measured Percent Control for COc1cccc(-c2c[nH]c3c(N/N=C/c4ccncc4)ncnc23)c1 [GW814408X] (STK36).
Reply: 11

====

Readings of Percent Control for the listed compounds
# System: KIT(A829P)
# Measurement Conditions: Compound Concentration (nM):1000
Unit % implied. Number only.

[[record]]
compound = "COc1cc(/C=N/Nc2ncnc3[nH]ncc23)ccc1O [GW578748X]"
reported_endpoint = "Percent Control"
numeric_readout = 36

[[record]]
compound = "Cl.O=S1CCN(Cc2ccc(-c3ccc4ncnc(Nc5ccc(OCc6ccccc6)c(F)c5)c4c3)o2)CC1 [GW576924A]"
reported_endpoint = "Percent Control"
numeric_readout = 100

[[record]]
compound = "Cl.O=C(Nc1ccc(Oc2ccc3[nH]c(NC(=O)c4ccco4)nc3c2)cc1)Nc1cc(C(F)(F)F)ccc1F [GW683134A]"
reported_endpoint = "Percent Control"
numeric_readout = 15


Attention now shifts to the item below.
Query: Entry NS(=O)(=O)c1ccc(N/N=C2\C(=O)Nc3ccc(C(=O)NCCc4c[nH]cn4)cc32)cc1 [GW300660X] needs its Percent Control filled in; supply it.
Reply: 85
